target-entity: Fyn (UniProt P06241)
Sequence (P06241 whole entry, looked up): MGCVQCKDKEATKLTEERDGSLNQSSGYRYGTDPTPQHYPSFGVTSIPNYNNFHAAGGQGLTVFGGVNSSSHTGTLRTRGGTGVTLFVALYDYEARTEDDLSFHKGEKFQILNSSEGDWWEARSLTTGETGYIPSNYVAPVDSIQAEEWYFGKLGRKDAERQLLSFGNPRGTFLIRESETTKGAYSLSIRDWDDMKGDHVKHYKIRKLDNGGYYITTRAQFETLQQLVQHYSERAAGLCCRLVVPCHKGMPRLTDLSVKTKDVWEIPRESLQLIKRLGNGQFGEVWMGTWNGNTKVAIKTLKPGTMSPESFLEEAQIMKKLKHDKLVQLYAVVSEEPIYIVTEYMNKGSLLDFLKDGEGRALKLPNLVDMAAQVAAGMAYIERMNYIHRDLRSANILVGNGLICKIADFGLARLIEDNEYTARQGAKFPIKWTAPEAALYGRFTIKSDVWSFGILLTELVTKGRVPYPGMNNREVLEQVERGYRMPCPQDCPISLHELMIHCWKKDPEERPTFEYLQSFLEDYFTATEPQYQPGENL
method: phosphorylation enrichment, bacterial display (enrichment ratio); higher = better substrate or ligand; peptides without Tyr show the background;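 note: 11-residue human phosphosite peptides and single-mutation variants displayed on the E. coli surface, counted by deep sequencing, each peptide's frequency after selection divided by its frequency in the unselected input library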;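 note: frequency after pTyr selection over input frequency; kinase dosed for 20-30% of maximal phosphorylation in three min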
# phosphorylation enrichment per entry

Some solved cases for reference:
RLQEDYDHSYY [ESD_Y258_G257D] :: 0.824
TQNGVYSAANY [DDX5_Y535] :: 7.45
NIEPVYLNMLL [ATR_Y317] :: 6.88
RTEAQYRFIFM [PTPN11_Y511_Q506R_YF] :: 0.312

What does the data say about its phosphorylation enrichment? Entry: GSRGKYSSGFR [ATM_Y332]
0.38

Repeat with EQLQSYQAEII [KRT33A_Y268]
0.516

Repeat with LENSTYQYIRV [CRB1_Y760]
5.14

Reference source for all entries: the supplement of paper PMC10065799
